assay: in vitro; details: human, Average cell viability
Readings of viability at 72 h, 100 ug/mL for the listed compounds
Give just the numeric value; % need not be written.

compound | viability at 72 h, 100 ug/mL [%]
CC/C=C\C/C=C\C/C=C\CCCCCCCC(=O)O [Compound 19, α-linolenic acid] | 21

Lab note: next compound to report on.
In: Quick one: viability at 72 h, 100 ug/mL of CCCCC/C=C\C/C=C\CCCCCCCC(=O)O [Compound 20, linoleic acid] ?
Out: 6

###

test system: SKOV3 (ovarian adenocarcinoma); details: human, 72 h, 10 ug/mL
assay-readout: Average cell viability (%)
Entry rule: numbers only, all in %.

In: Reported Average cell viability, compound CC/C=C\C/C=C\C/C=C\C/C=C\C/C=C\CCCC(=O)OCC(COC1OC(CO)C(O)C(O)C1O)OC(=O)CCCCCCCCCCCCCCC (stereo not shown) : ____
Out: 94
